testedSystem: T1, RANKL expressed on the surface of 293 cells (UniProt O14788 1-317, limits assumed)
T1 construct: whole, on cells; also called RANKL-transfected 293 cells; cells expressing RANKL
T1 sequence (looked up): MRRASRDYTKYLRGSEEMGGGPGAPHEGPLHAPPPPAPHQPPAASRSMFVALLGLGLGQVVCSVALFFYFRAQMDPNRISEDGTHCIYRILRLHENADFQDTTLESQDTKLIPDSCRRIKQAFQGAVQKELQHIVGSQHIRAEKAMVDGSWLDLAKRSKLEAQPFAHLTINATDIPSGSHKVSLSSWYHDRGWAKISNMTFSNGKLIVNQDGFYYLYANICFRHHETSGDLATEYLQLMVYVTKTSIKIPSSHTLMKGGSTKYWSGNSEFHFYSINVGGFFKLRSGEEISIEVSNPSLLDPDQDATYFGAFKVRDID
assayProcedure: flow cytometry (MFI) on RANKL-transfected 293 cells

- binder: "clone 227 rabbit anti-RANKL antibody (antibody, V domains shown) VH: QSLEESGGRLVKPDETLTLTCTVSGFSLYNYEINWVRQAPGKGLEWIGYIDVGSGTWYASWAKGRFTISKTSTTVDLKITSPTTEDTATYFCTRKYNPMDLWGPGTLVTVSS VL: DMTQTPASVEVAVGGTVTIKCQASQNIGSNLAWYQQKPGQPPKLLIYSTSTVASGVPSRFKGSGFGTQFTLTISGVQCDDAATYYCQQGYSAGNVNNPFGGGTEVVVK"
  EC50 / µg/mL: 0.0858
- binder: "clone 246 rabbit anti-RANKL antibody (antibody, V domains shown) VH: QSVKESGGGLVTPGGTLTLTCTASGLSLSGNGMSWVRQAPGKGLEWIGYIYSGSSPYYASWAKGRFTISKTSSTTVDLKMTSLTTEDTATYFCARHTSGGGWYLDIWGPGTLVTVSL VL: DMIQTPASVEVAVGGTVTINCQASQSIGSNLAWYQQKPGQPPKLLIYSASTLASGVSSRFKGSGSGTDYTLTISDVECTDAATYYCQQAYSISNVENPFGGGTEVVVK"
  EC50 / µg/mL: 1
- binder: "clone 256 rabbit anti-RANKL antibody (antibody, V domains shown) VH: QSLEESGGRLVTPGTPLTLTCTVSGFSLSKYEINWVRQAPGKGLEWIGYIDVGSGTWYASWAKGRFTISKTSTTVALRITSPTTEDTATYFCSRQYNPMDLWGPGTLVTVSS VL: DMTQTPASVEAAVGGTVTIKCQASQNIGSNLAWYQQKPGQRPKLLIYSASTLASGVPSRFKGSGSGTQFTLTISGVQCDDAATYYCQQGYSVGNVNNAFGGGTEVVVK"
  EC50 / µg/mL: 0.135
